assay: CelltiterGlo viability cell assay; assay type: cell-based; settings: human, HCC1143 breast cancer cells, HCC1143, 3 day, 1 uM; read-out: viability Replicate 3
READOUT NAME: viability at 3 day, 1 µM (%)
I only need the number, in %, no unit after it.

Reported viability at 3 day, 1 µM ( COc1cc(OC)cc(-c2noc(N3CCN(C)C4(CCN(c5ccnc(C)c5)CC4)C3)n2)c1 ) = 98.8

* * *

experiment: CelltiterGlo viability cell assay; assay type: cell-based; conditions: human, SKMM2 multiple myeloma cells, SKMM2, 6 day, 3 uM; read-out: viability Replicate 3
READOUT NAME: viability at 6 day, 3 µM (%)
A number alone suffices; assume %.

// viability at 6 day, 3 µM lookup, compound = COc1cc(OC)cc(-c2noc(N3CCN(C)C4(CCN(c5ccnc(C)c5)CC4)C3)n2)c1 [MRK-740] , result: 100

* * *

assay: CelltiterGlo viability cell assay; assay type: cell-based; settings: human, CAL851 breast cancer cells, CAL851, 6 day, 1 uM; read-out: viability Replicate 3
READOUT NAME: viability at 6 day, 1 µM (%)
Form entry: value (%) — number only.

Briefly, viability at 6 day, 1 µM measured for COc1cc(OC)cc(-c2noc(N3CCN(C)C4(CCN(c5ccnc(C)c5)CC4)C3)n2)c1 : 134

* * *

test: CelltiterGlo viability cell assay; format: cell-based; details: human, HCC1806 cells, HCC1806, 3 day, 0.1 uM; read-out: viability Replicate 1
READOUT NAME: viability at 3 day, 0.1 µM

Value of measured viability at 3 day, 0.1 µM for the entry COc1cc(OC)cc(-c2noc(N3CCN(C)C4(CCN(c5ccnc(C)c5)CC4)C3)n2)c1 [MRK-740] : 122%

* * *

assay: CelltiterGlo viability cell assay; assay type: cell-based; details: human, RPMI-8226 multiple myeloma cells, 8226, 3 day, 3 uM; read-out: viability Replicate 1
READOUT NAME: viability at 3 day, 3 µM (%)
Field: numeric (%). Do not append units.

Entry COc1cc(OC)cc(-c2noc(N3CCN(C)C4(CCN(c5ccnc(C)c5)CC4)C3)n2)c1 — recorded viability at 3 day, 3 µM = 106

* * *

assay: CelltiterGlo viability cell assay; type: cell-based; settings: human, RPMI-8226 multiple myeloma cells, 8226, 6 day, 3 uM; read-out: viability Replicate 2
READOUT NAME: viability at 6 day, 3 µM (%)
State the answer as a number, implicitly in %.

Field viability at 6 day, 3 µM (entry COc1cc(OC)cc(-c2noc(N3CCN(C)C4(CCN(c5ccnc(C)c5)CC4)C3)n2)c1 [MRK-740] ) reads 96.8

* * *

experiment: CelltiterGlo viability cell assay; format: cell-based; settings: human, SKMM2 cells (multiple myeloma line), SKMM2, 6 day, 0.01 uM; read-out: viability Replicate 3
READOUT NAME: viability at 6 day, 0.01 µM (%)
The figure you give is taken to be in %; do not add the unit.

Please fill in: viability at 6 day, 0.01 µM reported for COc1cc(OC)cc(-c2noc(N3CCN(C)C4(CCN(c5ccnc(C)c5)CC4)C3)n2)c1 = 99.2

* * *

assay: CelltiterGlo viability cell assay; assay type: cell-based; conditions: human, RPMI-8226 cells (multiple myeloma line), 8226, 6 day, 0.01 uM; read-out: viability Replicate 3
READOUT NAME: viability at 6 day, 0.01 µM (%)
The response must be a number in % with no trailing unit.

The molecule COc1cc(OC)cc(-c2noc(N3CCN(C)C4(CCN(c5ccnc(C)c5)CC4)C3)n2)c1 showed viability at 6 day, 0.01 µM equal to 102
